src = the Human Domainome abundance scans (Beltran et al. 2025)

B1: Calcium-binding protein 2, residues 155 to 219; numbered along this chain, Q9NPB3 (parent)
chain: RELRDAFREFDTNGDGRISVGELRAALKALLGERLSQREVDEILQDVDLNGDGLVDFEEFVRMMS

Variants of: B1
Assay: abundance fitness (aPCA) (normalised: wild type 0, dead -1); higher = more abundant; growth selection in yeast, the domain comes from the species named
Details: Homo sapiens
Measured abundance fitness values are reported for all entries that follow.
Provide a numeric answer; units are not to be included.

Consider the worked cases shown below.
In [3]: df
Out[3]:
   mutation_notation      quantity_kind  measured_value
0               Q37A  abundance fitness           0.003
1               L44K  abundance fitness           0.055
2               D48V  abundance fitness           0.092

For the variant G32S , give its reported abundance fitness.
-0.453

Find the measured abundance fitness of G51R and report it.
-0.085

Given F7N , respond with its abundance fitness.
-1.44
